Reference for the values: ChEMBL document CHEMBL2010694

Test: Lipophilicity, log D of the compound at pH 7.4
Type: physicochemical
Settings: buffer
# logD annotations
Please reply with the number alone, leaving off any unit.

• CC(C)S(=O)(=O)NC[C@H]1CC[C@H](NC(=O)CN2CCc3cc(Cl)ccc32)CC1 = 3

Now, please, on to the next molecule.
Tell me its logD given "CC(C)S(=O)(=O)NC[C@H]1CC[C@H](NC(=O)Cn2ccc3cc(Cl)ccc32)CC1" as the entry.
1.2

###

Test system: Brain
Assay: Drug uptake in Sprague-Dawley rat brain assessed as 2-(5-chloro-1H-indol-1-yl)-N-(4-((propan-2-ylsulfonamido)methyl)cyclohexyl)acetamide level at 10 mg/kg, po after 1 hr by LC-MS/MS analysis
Type: ADME, organism-based
Set-up: dose 10 mg/kg, route oral
Settings: in vivo, read-out: Drug uptake
assayMetric: concentration (nM)
Answer with a number only, understood to be in nM.

Tell me its concentration given "CC(C)S(=O)(=O)NC[C@H]1CC[C@H](NC(=O)Cn2ccc3cc(Cl)ccc32)CC1" as the entry.
641

###

Assay: Protein binding in human
Format: ADME, organism-based
Conditions: plasma, read-out: PB (converted)
assayMetric: fraction unbound
Please reply with the number alone, leaving off any unit.

* CC(C)S(=O)(=O)NC[C@H]1CC[C@H](NC(=O)Cn2ccc3cc(Cl)ccc32)CC1 | 0.004

Now, please, on to the next molecule.
Tell me its fraction unbound given "CC(C)S(=O)(=O)NC[C@H]1CC[C@H](NC(=O)CN2CCc3cc(Cl)ccc32)CC1" as the entry.
0.009

###

Protein target, amino acids: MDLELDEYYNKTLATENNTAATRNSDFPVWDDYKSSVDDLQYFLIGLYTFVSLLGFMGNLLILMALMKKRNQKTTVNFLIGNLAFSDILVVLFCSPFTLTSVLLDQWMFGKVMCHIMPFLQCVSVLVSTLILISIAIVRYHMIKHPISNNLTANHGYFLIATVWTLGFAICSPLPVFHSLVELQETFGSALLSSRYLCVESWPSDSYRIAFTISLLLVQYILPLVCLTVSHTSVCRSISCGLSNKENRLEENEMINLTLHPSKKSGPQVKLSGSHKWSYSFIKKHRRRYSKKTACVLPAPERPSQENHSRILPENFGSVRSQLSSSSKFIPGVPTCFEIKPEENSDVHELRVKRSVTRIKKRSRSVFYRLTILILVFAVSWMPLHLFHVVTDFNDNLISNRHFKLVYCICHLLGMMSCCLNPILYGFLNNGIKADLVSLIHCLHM
assayMetric: Ki (nM)
Answer with a number only, understood to be in nM.

Worked set:
• CC(C)S(=O)(=O)NC[C@H]1CC[C@H](NC(=O)Cn2ccc3ccc(F)cc32)CC1 = 1.2
• CC(C)S(=O)(=O)NC[C@H]1CC[C@H](NC(=O)CN2CC(C)(C)c3cc(Cl)ccc32)CC1 = 1.1
• CC(C)S(=O)(=O)NC[C@H]1CC[C@H](NC(=O)CN2CCc3cc(Cl)ccc32)CC1 = 0.5

Tell me its Ki given "CC(C)S(=O)(=O)NC[C@H]1CC[C@H](NC(=O)CCN2CCc3ccccc32)CC1" as the entry.
1.8

Tell me its Ki given "CC(C)S(=O)(=O)NC[C@H]1CC[C@H](NC(=O)Cn2ccc3cc(Cl)ccc32)CC1" as the entry.
0.3

Tell me its Ki given "CC(C)S(=O)(=O)NC[C@H]1CC[C@H](NC(=O)Cn2ccc3cc(C#N)ccc32)CC1" as the entry.
5.6

Tell me its Ki given "CC(C)S(=O)(=O)NC[C@H]1CC[C@H](NC(=O)Cn2ccc3cccc(Cl)c32)CC1" as the entry.
0.9

Tell me its Ki given "CC(C)S(=O)(=O)NC[C@H]1CC[C@H](NC(=O)CN2CCc3c2ccc(F)c3F)CC1" as the entry.
1.5

Tell me its Ki given "CC(C)S(=O)(=O)NC[C@H]1CC[C@H](NC(=O)Cn2ccc3c(Cl)cccc32)CC1" as the entry.
1.7

Tell me its Ki given "CC(C)S(=O)(=O)NC[C@H]1CC[C@H](NC(=O)Cn2ccc3cc(F)c(F)cc32)CC1" as the entry.
0.9

Tell me its Ki given "CC(C)S(=O)(=O)NC[C@H]1CC[C@H](NC(=O)Cc2cn(C)c3ccccc23)CC1" as the entry.
2
